# ASSAY_TARGET: Kir3.1/3.4 (Rattus norvegicus, UniProt P48548+P63251)
# Construct: expressed in transfected cells
# Sequence (P63251 whole entry): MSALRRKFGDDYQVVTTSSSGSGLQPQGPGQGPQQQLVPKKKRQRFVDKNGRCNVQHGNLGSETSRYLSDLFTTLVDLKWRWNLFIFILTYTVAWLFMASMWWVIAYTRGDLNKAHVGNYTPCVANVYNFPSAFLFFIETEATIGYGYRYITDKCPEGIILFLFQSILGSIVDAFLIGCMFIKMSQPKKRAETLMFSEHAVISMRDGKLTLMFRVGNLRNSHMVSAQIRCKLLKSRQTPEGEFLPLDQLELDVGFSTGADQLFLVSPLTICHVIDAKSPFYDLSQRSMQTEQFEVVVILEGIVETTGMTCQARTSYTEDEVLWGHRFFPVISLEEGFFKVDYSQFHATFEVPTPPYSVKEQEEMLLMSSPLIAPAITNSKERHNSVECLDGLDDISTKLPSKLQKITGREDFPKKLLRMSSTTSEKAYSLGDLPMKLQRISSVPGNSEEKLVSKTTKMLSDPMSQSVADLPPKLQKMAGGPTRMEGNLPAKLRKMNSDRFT
# Sequence (P48548 whole entry): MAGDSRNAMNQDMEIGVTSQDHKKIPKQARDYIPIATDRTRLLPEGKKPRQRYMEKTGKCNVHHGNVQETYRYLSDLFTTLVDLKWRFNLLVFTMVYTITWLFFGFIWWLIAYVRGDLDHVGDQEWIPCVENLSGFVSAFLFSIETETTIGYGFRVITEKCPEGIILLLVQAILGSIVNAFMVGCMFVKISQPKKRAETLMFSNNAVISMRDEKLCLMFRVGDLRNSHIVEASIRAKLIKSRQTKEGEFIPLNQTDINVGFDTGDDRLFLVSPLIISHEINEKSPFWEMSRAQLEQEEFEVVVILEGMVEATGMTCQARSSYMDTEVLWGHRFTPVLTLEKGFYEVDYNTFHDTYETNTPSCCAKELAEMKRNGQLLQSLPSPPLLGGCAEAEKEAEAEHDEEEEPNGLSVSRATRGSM
# EXPERIMENT_SUMMARY: Kir3.1/3.4 Electrophysiology Method (manual whole-cell patch clamp)
# Format: cell-based
# PROTOCOL_CONDITIONS: Electrophysiology Method (TABLE 1)
Readings of IC50 for the listed compounds

// worked examples, IC50 included
CNC(=O)c1sc2ncnc(N3CCC(COCCN4CCCC4)CC3)c2c1-c1ccccc1 [Example 141]    < 500 nM
COCC1CCN(c2nc(NCCN(C)C)nc3scc(-c4ccccc4)c23)CC1 [Example 173]    < 500 nM
CC(C)c1csc2ncnc(N3C4CCC3CC(COCCN3CCCC3)C4)c12 (centres unmarked) [Example 287]    < 500 nM
CN1CCC(N(C)CC2CCN(c3ncnc4sc(Br)c(-c5ccccc5)c34)CC2)C1 (centres unmarked) [Example 266]    < 500 nM
FC(F)(F)C1CCCN(CC2CCN(c3ncnc4scc(-c5ccccc5)c34)CC2)C1 (centres unmarked) [Example 212]    < 500 nM

Supply measured IC50 of C[C@@H](CN(C)C)OCC1CCN(c2ncnc3scc(-c4ccccc4)c23)CC1 [Example 254] in your reply.
< 500 nM

Return the recorded IC50 value; entry: COCC1CCN(c2nc(NCCC3CCCN3C)nc3scc(C4CCCCC4)c23)CC1 (centres unmarked) [Example 177]
500 to 3000 nM

Please supply the value of reported IC50 for the item CC1CCC(C)N1CC1CCN(c2ncnc3scc(-c4ccccc4)c23)CC1 (centres unmarked) [Example 98]
500 to 3000 nM

Kindly indicate its recorded IC50. Item: CN1CCC(NCC2CCN(c3ncnc4scc(-c5ccccc5)c34)CC2)CC1 [Example 97]
< 500 nM

Using known records, supply IC50 for COc1ncccc1-c1csc2ncnc(N3C4CCC3CC(NC3CCC3)C4)c12 (centres unmarked) [Example 345]
< 500 nM

Answer with the recorded IC50 for the compound listed here: NC(=O)[C@H]1CCCN1CCOCC1C2CN(c3ncnc4scc(-c5ccc(F)cc5)c34)CC12 (some centres unmarked) [Example 45]
< 500 nM

###

# ASSAY_TARGET: Kir3.1/3.4 (Rattus norvegicus, UniProt P48548+P63251)
# Construct: expressed in transfected cells
# EXPERIMENT_SUMMARY: Kir3.1/3.4 Electrophysiology Method (manual whole-cell patch clamp)
# Type: cell-based
# PROTOCOL_CONDITIONS: Electrophysiology Method (TABLE 1)
VALUE_TYPE: IC50

Worked cases, IC50 given:
CN1CCC(N(C)CC2CCN(c3nc(N(C)CC(N)=O)nc4scc(-c5ccccc5)c34)CC2)C1 (stereo not shown) [Example 121]    < 500 nM
COc1ccccc1-c1csc2nc(C3CC3)nc(N3CCC(COCCN4CCCC4)CC3)c12 [Example 358]    < 500 nM
c1cncc(-c2csc3ncnc(N4CCC(COCCN5CCCC5)CC4)c23)c1 [Example 324]    500 to 3000 nM
FC(F)(F)c1nc(N2CCC(COCCN3CCCC3)CC2)c2c(-c3ccccc3)csc2n1 [Example 340]    < 500 nM
CC1CCN(CC2CC(c3ccccc3)N(c3ncnc4scc(-c5ccccc5)c34)C2)C1 (stereo not shown) [Example 198]    < 500 nM
COc1ccccc1-c1csc2ncnc(N3C4CCC3CC(CNC3CCC3)C4)c12 (stereo not shown) [Example 367]    < 500 nM
CC(=O)NC1CCN(c2nc(N3CCC(CN(C)C4CCN(C)C4)CC3)c3c(-c4ccccc4)csc3n2)C1 (stereo not shown) [Example 226]    < 500 nM
c1ccc(-c2csc3ncnc(N4CC(COCCN5CCCC5)C4)c23)cc1 [Example 273]    500 to 3000 nM
NC(=O)C1CCN(c2nc(N3CC4CC3CO4)c3c(-c4ccccc4)csc3n2)C1 (stereo not shown) [Example 309]    3000 to 10000 nM
O=C(NCCN1CCCC1)C1CCN(c2ncnc3scc(-c4ccccc4)c23)CC1 [Example 267]    500 to 3000 nM

// fetch IC50; item: CN1CCC(N(C)CC2CCN(c3nc(N4CC(C(N)=O)C4)nc4scc(-c5ccccc5)c34)CC2)C1 (stereo not shown) [Example 237] ; system: Kir3.1/3.4 (Rattus norvegicus, UniProt P48548+P63251)
< 500 nM

Specify IC50 for NC(=O)C1CCN(CCOCC2CCN(c3ncc4c(-c5ccccc5)csc4n3)CC2)C1 (stereo not shown) [Example 153] , system Kir3.1/3.4 (Rattus norvegicus, UniProt P48548+P63251).
< 500 nM

Fill in IC50 for O=[N+]([O-])c1ccc(-c2csc3ncnc(N4CCC(COCCN5CCCC5)CC4)c23)cc1 [Example 46] tested with Kir3.1/3.4 (Rattus norvegicus, UniProt P48548+P63251).
< 500 nM

Give IC50 for this entry on Kir3.1/3.4 (Rattus norvegicus, UniProt P48548+P63251): c1ccc(-c2csc3ncnc(N4C5CCC4CC(OCCN4CCCC4)C5)c23)cc1 (stereo not shown) [Example 289]
< 500 nM

Using Kir3.1/3.4 (Rattus norvegicus, UniProt P48548+P63251) as the test system, report measured IC50 of CN1CCC(N(C)CC2CCN(c3nc(N4CCC(C(N)=O)C4)nc4scc(-c5ccccc5)c34)CC2)C1 (stereo not shown) [Example 120] .
< 500 nM

Return reported IC50 for target or system Kir3.1/3.4 (Rattus norvegicus, UniProt P48548+P63251), item CN1CCN(c2nc(N3CCC(CN(C)C4CCN(C)C4)CC3)c3c(-c4ccccc4)csc3n2)CC1 (stereo not shown) [Example 111] .
< 500 nM

###

# ASSAY_TARGET: Kir3.1/3.4 (Rattus norvegicus, UniProt P48548+P63251)
# Construct: expressed in transfected cells
# EXPERIMENT_SUMMARY: Kir3.1/3.4 Electrophysiology Method (manual whole-cell patch clamp)
# Type: cell-based
# PROTOCOL_CONDITIONS: Electrophysiology Method (TABLE 1)
pIC50: −log10 of the molar value.
VALUE_TYPE: pIC50

Recorded pIC50, per entry:
COCC1CCN(c2nc(N3CCC(CO)CC3)nc3scc(-c4ccccc4)c23)CC1    > 6.30
c1ccc(-c2csc3ncnc(N4CCC(N5CCCCC5)C4)c23)cc1 (centres unmarked) [Example 181, d]pyrimidine]    5.52 to 6.30
Nc1nc(N2CCC(COCCN3CCCC3)CC2)c2c(-c3ccccc3)csc2n1    > 6.30
CN(C)CCN(C)CC1CCN(c2nc(N3CCC(C(N)=O)C3)nc3scc(-c4ccccc4)c23)CC1 (centres unmarked)    > 6.30
c1ccc(-c2csc3ncnc(N4CC[C@H](COCCN5CCCC5)C4)c23)cc1    > 6.30

Name the recorded pIC50 of the compound listed here: "CNC(=O)c1sc2ncnc(N3CCC(COCCN4CCCC4)CC3)c2c1C(C)C"
5.52 to 6.30

Using the record for "OCC1(NCC2CCN(c3ncnc4scc(-c5ccccc5)c34)CC2)CCCC1" , state its measured pIC50.
> 6.30

Using known records, supply pIC50 for Fc1ccc(-c2csc3ncnc(N4CC5C(COCCN6CC[C@H](F)C6)C5C4)c23)cc1 (some centres unmarked)
> 6.30

Could you please provide reported pIC50 for "Brc1sc2nccc(N3CCC(COCCN4CCCC4)CC3)c2c1-c1ccccc1" ? Thanks!
> 6.30

# return recorded pIC50 for input "CNC(=O)CN(CC1CCN(c2ncnc3scc(-c4ccccc4)c23)CC1)C1CCC1"
5.52 to 6.30

Please indicate pIC50 recorded for NC(=O)[C@H]1CCCN1CCOC1CC2CC1CN2c1ncnc2scc(-c3ccccc3)c12 (some centres unmarked)
> 6.30

# return recorded pIC50 for entry COCC1CC2CCC(C1)N2c1nc(OC2CC3CC2CN3)nc2scc(-c3ccccc3)c12 (centres unmarked)
> 6.30

For the compound "CN(C)C1CCN(CC2CCN(c3ncnc4scc(-c5ccccc5)c34)CC2)CC1" , give its measured pIC50 value.
> 6.30

State, in one line, measured pIC50 of CN1CCC(N(C)CC2CCN(c3ncnc4sc(C(=O)N(C)C)c(-c5ccccc5)c34)CC2)C1 (centres unmarked)
5.52 to 6.30

###

# ASSAY_TARGET: Kir3.1/3.4 (Rattus norvegicus, UniProt P48548+P63251)
# Construct: expressed in transfected cells
# EXPERIMENT_SUMMARY: Kir3.1/3.4 Electrophysiology Method (manual whole-cell patch clamp)
# Assay type: cell-based
# PROTOCOL_CONDITIONS: Electrophysiology Method (TABLE 1)
Measured IC50, listed per entry for reference.

Below, each entry is followed by its recorded IC50 result.
OCC(Cc1ccccc1)NCC1CCN(c2ncnc3scc(-c4ccccc4)c23)CC1 (stereo not shown)    < 500 nM
CN1CCN(c2nc(N3CCC(CN4CCCC(N(C)C)C4)CC3)c3c(-c4ccccc4)csc3n2)CC1 (stereo not shown)    < 500 nM
CN1CCC(N(C)CC2CCN(c3nc(NCC4CC4)nc4scc(-c5ccccc5)c34)CC2)C1 (stereo not shown)    < 500 nM

As a next step, examine the molecule that follows.
Please indicate IC50 recorded for "O=C(NCCO)c1sc2ncnc(N3CCC(COCCN4CCCC4)CC3)c2c1-c1ccccc1"
500 to 3000 nM
